Each entry below carries its recorded normalized growth.
- EXPERIMENTAL PROTOCOL: chemical genetic growth profiling, strain panel (AID 1159580);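 note: tested at 20 µM; growth read once vehicle control cultures reached saturation at 30 °C; 1 = growth at the plate median or of vehicle wells; lower values mean less growth of the strain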
- RECORDED CONDITIONS: S. cerevisiae deletion strains, growth OD, locus YBR160W, strain CDC28, hits give low values
Hit rate of the full screen: of about 5,500 compounds, about 2,000 (36%) were called active. About 18% were inconclusive and are not listed. This is one part of the list.
MEASUREMENT TYPE: normalized growth

1) S=C(Nc1ccc(Cl)cc1Cl)N(c1cccc(Cl)c1)c1nc2ccccc2s1 | 0.964
2) Cc1ccc(/C=C2\CSc3ccc(F)cc3C2=O)cc1 | 0.959
3) CCOC(=O)CSC(=S)NCc1ccc(C)cc1 | 0.951
4) O=S(=O)(Nc1cccc2nsnc12)c1cc(Cl)sc1Cl | 0.962
5) O=C1C(=O)N(CN2CCc3c([nH]c4ccccc34)C2C(F)(F)F)c2ccc(F)cc21 (configuration not stated) | 0.962
6) Cc1c(Cc2ccc(F)cc2)c(=O)oc2cc(O)ccc12 | 0.981
7) O=S(=O)(Nc1cccc(CCc2ccccn2)c1)c1cc(Cl)c(Cl)cc1Cl | 0.966
